tested on: Bacillus subtilis; experiment: cleaved RNA product abundance (RNA/gDNA barcode ratio) relative to median wild-type variant (ratio to wild type); higher = more accumulation of the downstream cleavage product; conditions: experiment (reporter, strain, medium): exp 2b: truncated aprE reporter, strain BJT200; cleavage site: cggR-gapA (positions -7 to +36 mutated)
Hi there, I'd appreciate the recorded cleaved RNA product abundance for every entry that follows.
Answers are plain numbers.

Worked cases, answers included:
| residue_sequence | cleaved RNA product abundance |
| --- | --- |
| ACAGACGAAGGAGCCGCAAAGAATTTATTAAGGGATGAATAAACCCTCAATATAAATATCTCTCACTTATTTAAA | 0.322 |
| ACAGACGAAGGAGCCGCAAAGAAATTTTTAAGGGATGAATAATCCCTCAATATAAATATCTCTCACTTATTTAAA | 0.206 |

List the reported cleaved RNA product abundance of each sequence below.
1. ACAGACGAAGGAGCCGCAAAGAAGTTATTAACGGATGAACAATCCCTCAATATAAATATCTCTCACTTATTTAAA
2. ACAGACGAAGGAGCCGCAAATAAGTTATTAAGGGACGAATAATCCCTCAATATAAATATCTCTCACTTATTTAAA
3. ACAGACGAAGGAGCCGCAAAGAAGTGATTAAGGTATGAATAATCCCTCAATATAAATATCTCTCACTTATTTAAA
4. ACAGACGAAGGAGCCGCAAAGAAGTTTTTAAGGGATGAATAATCCCTAAATATAAATATCTCTCACTTATTTAAA

**A:**
1: 0.0917; 2: 0.65; 3: 0.0827; 4: 0.364

For the 8 sequences below, give their cleaved RNA product abundance values.
1. ACAGACGAAGGAGCCGCAAAGAAATTATTAAGGGATGAATAATCCCTCAAAATAAATATCTCTCACTTATTTAAA
2. ACAGACGAAGGAGCCGCATAGAAGTTATTAAGGCATGAATAATCCCTCAATATAAATATCTCTCACTTATTTAAA
3. ACAGACGAAGGAGCCGCATAGAAATTATTAAGGGATGAATAATCCCTCAATATAAATATCTCTCACTTATTTAAA
4. ACAGACGAAGGAGCCGCAAAGAACTTATTAAGGGATGAATAATCCCTCAAGATAAATATCTCTCACTTATTTAAA
5. ACAGACGAAGGAGCCGCAAAGATGTTATTAATGGATGAATAATCCCTCAATATAAATATCTCTCACTTATTTAAA
6. ACAGACGAAGGAGCCGCAAAGAATTTATTAAGGGATGAAAAATCCCTCAATATAAATATCTCTCACTTATTTAAA
7. ACAGACGAAGGAGCCGCAAAGTAGTTATTAAGGGATGAATAATCCCTTAATATAAATATCTCTCACTTATTTAAA
8. ACAGACGAAGGAGCCGCCAAGAAGTTATTAAGGGATGAATAATCCCTTAATATAAATATCTCTCACTTATTTAAA

**A:**
[0.257, 0.0988, 0.834, 0.165, 0.131, 0.561, 0.869, 0.21]

**Q:** Which cleaved RNA product abundance value belongs to "ACAGACGAAGGAGCCGCAAAGAAGTTATTAAGGGAAGAATAATCCATCAATATAAATATCTCTCACTTATTTAAA" ?
**A:** 0.114
